# target-or-test-system: VAV1 (Homo sapiens, UniProt P15498+Q96SW2)
# Construct: A heterozygous VAV1 C-terminal HiBiT knock-in pool was generated at Monte Rosa Therapeutics from a clonal Jurkat cell; endogenous in cells; host or cells: Jurkat clone stably expressing LgBiT, homozygous GSPT1-G575N; heterozygous VAV1-HiBiT knock-in pool
# assay-procedure: VAV1 degradation activity, VAV1-HiBiT knock-in Jurkat luminescence assay (Example A, Table 1)
# Assay type: cell-based
# test-parameters: VAV1-HiBiT knock-in Jurkat cells, luminescence read at 6 and 24 hours; read-out: VAV1 DC50 (nM), class
readout-type: DC50

- compound: "O=C1CCC(c2cccc(-c3ccc(-n4c(F)cccc4=O)cc3)c2Cl)C(=O)N1 (stereo not shown)"
  DC50: "≤ 100 nM"
- compound: "Nc1ccc(-c2cccc(C3CCC(=O)NC3=O)c2Cl)cc1Cl (stereo not shown)"
  DC50: "≤ 100 nM"

With VAV1 (Homo sapiens, UniProt P15498+Q96SW2) as the test system, CC1CCCN(Cc2ccc(-c3cccc(C4CCC(=O)NC4=O)c3Cl)cc2)C1=O (stereo not shown) showed DC50 of ≤ 100 nM

The reported VAV1 (Homo sapiens, UniProt P15498+Q96SW2) DC50 of Cn1ccc(COc2ccc(-c3ccc(Cl)c(C4CCC(=O)NC4=O)c3F)cc2)n1 (stereo not shown) is > 1000 nM

====

# target-or-test-system: VAV1 (Homo sapiens, UniProt P15498+Q96SW2)
# Construct: A heterozygous VAV1 C-terminal HiBiT knock-in pool was generated at Monte Rosa Therapeutics from a clonal Jurkat cell; endogenous in cells; host or cells: Jurkat clone stably expressing LgBiT, homozygous GSPT1-G575N; heterozygous VAV1-HiBiT knock-in pool
# assay-procedure: VAV1 degradation activity, VAV1-HiBiT knock-in Jurkat luminescence assay (Example A, Table 1)
# Assay type: cell-based
# test-parameters: VAV1-HiBiT knock-in Jurkat cells, luminescence read at 6 and 24 hours; read-out: VAV1 DC50
readout-type: DC50 (µM)
Report the figure in µM without appending any unit label.

// known answers, use as guide
- compound: "O=C1CCC(c2cccc(-c3ccc(N4CCCCC4C(F)(F)F)cc3)c2Cl)C(=O)N1 (centres unmarked)"
  target-or-test-system: "VAV1 (Homo sapiens, UniProt P15498+Q96SW2)"
  DC50 (µM): 0.397
- compound: "O=C1CCC(c2cccc(-c3ccc(Cc4ccccn4)cc3)c2Cl)C(=O)N1 (centres unmarked)"
  target-or-test-system: "VAV1 (Homo sapiens, UniProt P15498+Q96SW2)"
  DC50 (µM): 0.00559
- compound: "O=C1CCC(c2cccc(-c3ccc(-n4cc(C(F)(F)F)ccc4=O)cc3)c2Cl)C(=O)N1 (centres unmarked)"
  target-or-test-system: "VAV1 (Homo sapiens, UniProt P15498+Q96SW2)"
  DC50 (µM): 0.0358
- compound: "O=C1CCC(c2cccc(-c3ccc(NC(=O)c4ccon4)cc3)c2Cl)C(=O)N1 (centres unmarked)"
  target-or-test-system: "VAV1 (Homo sapiens, UniProt P15498+Q96SW2)"
  DC50 (µM): 0.0793
- compound: "O=C1CCC(c2cccc(-c3ccc(N4CCOCC4)cc3)c2Cl)C(=O)N1 (centres unmarked)"
  target-or-test-system: "VAV1 (Homo sapiens, UniProt P15498+Q96SW2)"
  DC50 (µM): 2.17
- compound: "CC1CCC(F)(F)C(=O)N1Cc1ccc(-c2cccc(C3CCC(=O)NC3=O)c2Cl)cc1 (centres unmarked)"
  target-or-test-system: "VAV1 (Homo sapiens, UniProt P15498+Q96SW2)"
  DC50 (µM): 0.0141
- compound: "CN1CCN(CCOc2ccc(-c3cccc(C4CCC(=O)NC4=O)c3Cl)cc2)CC1 (centres unmarked)"
  target-or-test-system: "VAV1 (Homo sapiens, UniProt P15498+Q96SW2)"
  DC50 (µM): 0.0597
- compound: "CN1CC(=O)N(c2ccc(-c3cccc(C4CCC(=O)NC4=O)c3Cl)cc2)c2cncnc21 (centres unmarked)"
  target-or-test-system: "VAV1 (Homo sapiens, UniProt P15498+Q96SW2)"
  DC50 (µM): 0.0162

Note to self: DC50 recorded for Cc1ccn(C)c(=O)c1-c1ccc(-c2cccc(C3CCC(=O)NC3=O)c2Cl)cc1 (centres unmarked) was 0.00163

response.value for O=C1CCC(c2cccc(-c3ccc(N4CCCOC4=O)c(F)c3)c2Cl)C(=O)N1 (centres unmarked) (field: DC50) = 0.0215

For this compound ( O=C1CCC(c2cccc(-c3ccc(N4C(=O)CCCC45CC5)cc3)c2Cl)C(=O)N1 (centres unmarked) ), measured DC50 is 0.0028

The measured DC50 associated with O=C1CCC(c2cccc(-c3ccc(N4C(=O)CCCC4C(F)(F)F)cc3)c2Cl)C(=O)N1 (centres unmarked) reads 0.00836

// O=C1CCC(c2cccc(-c3ccc(CN4CCn5ccnc5C4=O)cc3)c2Cl)C(=O)N1 (centres unmarked) : DC50 value = 0.269

In plain terms, CC1(C)CN(c2cccc(-c3ccc(CC4CCC(=O)NC4=O)cc3Cl)c2)C(=O)CO1 (centres unmarked) [Compound 280] has a documented DC50 of 0.0449

====

# target-or-test-system: VAV1 (Homo sapiens, UniProt P15498+Q96SW2)
# Construct: A heterozygous VAV1 C-terminal HiBiT knock-in pool was generated at Monte Rosa Therapeutics from a clonal Jurkat cell; endogenous in cells; host or cells: Jurkat clone stably expressing LgBiT, homozygous GSPT1-G575N; heterozygous VAV1-HiBiT knock-in pool
# assay-procedure: VAV1 degradation activity, VAV1-HiBiT knock-in Jurkat luminescence assay (Example A, Table 1)
# Format: cell-based
# test-parameters: Jurkat, VAV1-HiBiT knock-in Jurkat cells, luminescence read at 6 and 24 hours; read-out: VAV1 Dmax %
Entries annotated with measured Dmax
Numbers only; they are read as %.

// solved cases for Dmax follow
- compound: "CN1Cc2cccc(-c3ccc(-c4cccc(C5CCC(=O)NC5=O)c4Cl)cc3)c2S1(=O)=O (centres unmarked) [Compound 406]"
  target-or-test-system: "VAV1 (Homo sapiens, UniProt P15498+Q96SW2)"
  value-units: "%"
  recorded-number: 82.4
- compound: "O=C1CCC(c2cc(F)cc(-c3ccc(-n4ccccc4=O)cc3)c2Cl)C(=O)N1 (centres unmarked) [Compound 361]"
  target-or-test-system: "VAV1 (Homo sapiens, UniProt P15498+Q96SW2)"
  value-units: "%"
  recorded-number: 84.4
- compound: "O=C1CCC(c2cccc(-c3ccc(N4CCCOC4=O)c(F)c3)c2Cl)C(=O)N1 (centres unmarked) [Compound 452]"
  target-or-test-system: "VAV1 (Homo sapiens, UniProt P15498+Q96SW2)"
  value-units: "%"
  recorded-number: 94

For the next question, use this compound.
In plain terms, O=C1CCC(c2cccc(-c3ccc(N4CCCN(CC(F)F)C4=O)cc3)c2Cl)C(=O)N1 (centres unmarked) [Compound 429] has a documented Dmax of 96.9

====

# target-or-test-system: VAV1 (Homo sapiens, UniProt P15498+Q96SW2)
# Construct: A heterozygous VAV1 C-terminal HiBiT knock-in pool was generated at Monte Rosa Therapeutics from a clonal Jurkat cell; endogenous in cells; host or cells: Jurkat clone stably expressing LgBiT, homozygous GSPT1-G575N; heterozygous VAV1-HiBiT knock-in pool
# assay-procedure: VAV1 degradation activity, VAV1-HiBiT knock-in Jurkat luminescence assay (Example A, Table 1)
# Type: cell-based
# test-parameters: Jurkat, VAV1-HiBiT knock-in Jurkat cells, luminescence read at 6 and 24 hours; read-out: VAV1 Dmax %, class
readout-type: Dmax

Here is how some compounds turned out for Dmax.
- compound: "CN1CC(=O)N(Cc2ccc(-c3cccc(C4CCC(=O)NC4=O)c3Cl)cc2)c2cccnc21 (centres unmarked) [Compound 255]"
  readout-type: "Dmax"
  result: "60 to 90%"
- compound: "O=C1CCC(c2cccc(-c3ccc(CN4CCC(F)C4=O)cc3)c2Cl)C(=O)N1 (centres unmarked) [Compound 289]"
  readout-type: "Dmax"
  result: "60 to 90%"
- compound: "O=C1CCC(c2cccc(-c3ccc(Cn4ccccc4=O)nc3)c2Cl)C(=O)N1 (centres unmarked) [Compound 447]"
  readout-type: "Dmax"
  result: "60 to 90%"
- compound: "[2H]c1c([2H])c(-n2ccccc2=O)c([2H])c([2H])c1-c1cccc(C2CCC(=O)NC2=O)c1Cl (centres unmarked) [Compound 462]"
  readout-type: "Dmax"
  result: "> 90%"

For reference, reported Dmax for O=C1CCC(c2cccc(-c3ccc(CN4C(=O)CC45CCOCC5)cc3)c2Cl)C(=O)N1 (centres unmarked) [Compound 278] stands at > 90%

Lab note: Cc1cc(C)n(Cc2ccc(-c3cccc(C4CCC(=O)NC4=O)c3Cl)cc2)n1 (centres unmarked) [Compound 127] gave Dmax of > 90%

Dmax reported for this compound COc1ccc(-c2cccc(C3CCC(=O)NC3=O)c2Cl)cc1C#N (centres unmarked) [Compound 139] : < 60%

// Dmax lookup, compound = CN1CCCN(c2ccc(-c3cccc(C4CCC(=O)NC4=O)c3Cl)cn2)C1=O (centres unmarked) [Compound 435] , result: 60 to 90%
